experimental_system: 5-HT1A receptors (Rattus norvegicus, UniProt P19327)
Sequence (P19327 whole entry): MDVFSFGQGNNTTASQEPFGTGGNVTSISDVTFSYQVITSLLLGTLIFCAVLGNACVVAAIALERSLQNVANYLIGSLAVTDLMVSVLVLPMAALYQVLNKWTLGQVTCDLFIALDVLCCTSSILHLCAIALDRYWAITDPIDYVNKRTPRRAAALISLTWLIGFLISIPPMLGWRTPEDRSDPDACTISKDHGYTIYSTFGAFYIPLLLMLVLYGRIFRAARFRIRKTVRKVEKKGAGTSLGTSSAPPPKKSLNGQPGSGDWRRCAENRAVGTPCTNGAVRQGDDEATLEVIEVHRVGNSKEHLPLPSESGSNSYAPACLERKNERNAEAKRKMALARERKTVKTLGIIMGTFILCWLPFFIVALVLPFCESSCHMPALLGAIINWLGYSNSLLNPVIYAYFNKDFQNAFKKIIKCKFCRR
assay: Affinity for 5-HT1A receptors in vitro ([3H]-8-OH-DPAT binding, rat hippocampus membranes)
Parameters: from tissue; host or cells: hippocampus membranes of male Wistar rats; species or system male Wistar rats
Structures can show the parent of a compound that is named as a salt.
quantity: pKi
Note on pKi: it is the negative log10 of concentration, concentration in mol/L.

## Input Return reported pKi; argument: COc1cccc2c1OC(CNCC1CCN(c3nc4ccccc4s3)CC1)CO2 (stereo not shown) [Example 16, DIHYDROCHLORIDE]
## Output 9.30
